# credit: ChEMBL document CHEMBL1138517

assay: Inhibition of centrosomal clustering in human SCC114 cells expressing GFPalpha-tubulin assessed as mitotic cells with multipolar spindles by fluorescence microscopy; type: functional, cell-based
Documented IC50 across a set of compounds
endpoint-label: IC50 (nM)

COc1cc(OC)c2c(c1Cl)O[C@]1(C2=O)C(OCC2CC2)=CC(=O)C[C@H]1C ... 1800
COc1cc(OC)c2c(c1Cl)O[C@]1(C2=O)C(OCc2ccc(C)cc2)=CC(=O)C[C@H]1C ... 900

====

test: Inhibition of centrosomal clustering in human SCC114 cells expressing GFPalpha-tubulin assessed as mitotic cells with multipolar spindles by fluorescence microscopy; type: functional, cell-based
Let's look at some molecules and their measured IC50.
endpoint-label: IC50 (µM)

CCCOC1=CC(=O)C[C@@H](C)[C@]12Oc1c(Cl)c(OC)cc(OC)c1C2=O ... 6.6
CCCOC1=C(I)C(=O)C[C@@H](C)[C@]12Oc1c(Cl)c(OC)cc(OC)c1C2=O ... 2
CCCCCCOC1=CC(=O)C[C@@H](C)[C@]12Oc1c(Cl)c(OC)cc(OC)c1C2=O ... 4
COc1cc(OC)c2c(c1Cl)O[C@]1(C2=O)C(OCc2ccccc2)=CC(=O)C[C@H]1C ... 0.9

====

Entries and their log10 of IC50 values follow.
experiment: Inhibition of centrosomal clustering in human SCC114 cells expressing GFPalpha-tubulin assessed as mitotic cells with multipolar spindles by fluorescence microscopy; format: functional, cell-based
endpoint-label: log10 of IC50 (log10 of the value in µM)

CCCCOC1=CC(=O)C[C@@H](C)[C@]12Oc1c(Cl)c(OC)cc(OC)c1C2=O ... 0.40
CCCCCOC1=CC(=O)C[C@@H](C)[C@]12Oc1c(Cl)c(OC)cc(OC)c1C2=O ... 0.45
COc1cc(OC)c2c(c1Cl)O[C@]1(C2=O)C(OCc2ccc(-c3ccccc3)cc2)=CC(=O)C[C@H]1C ... 0.46
COC1=C/C(=N\N(C)C)C[C@@H](C)[C@]12Oc1c(Cl)c(OC)cc(OC)c1C2=O ... 1.43
COc1cc(OC)c2c(c1Cl)O[C@]1(C2=O)C(SCc2ccccc2)=CC(=O)C[C@H]1C ... 0.11
COc1cc(OC)c2c(c1Cl)O[C@]1(C2=O)C(OCc2ccccc2)=C/C(=N\O)C[C@H]1C ... -0.05
COc1cc(OC)c2c(c1Cl)O[C@]1(C2=O)C(OCC23CC4CC(CC(C4)C2)C3)=CC(=O)C[C@H]1C ... 0.57
COc1cc(OC)c2c(c1Cl)O[C@]1(C2=O)C(OCCc2ccccc2)=CC(=O)C[C@H]1C ... 1.18
CCOC1=CC(=O)C[C@@H](C)[C@]12Oc1c(Cl)c(OC)cc(OC)c1C2=O ... 0.82
COc1cc(OC)c2c(c1Cl)O[C@]1(C2=O)C(OC(C)C)=CC(=O)C[C@H]1C ... 0.83
COc1cc(OC)c2c(c1Cl)O[C@]1(C2=O)C(OC2CCCC2)=CC(=O)C[C@H]1C ... 0.11

====

assay: Inhibition of centrosomal clustering in human SCC114 cells expressing GFPalpha-tubulin assessed as mitotic cells with multipolar spindles by fluorescence microscopy; assay type: functional, cell-based
# IC50 per entry
endpoint-label: IC50 (µM)

COc1cc(OC)c2c(c1Cl)O[C@]1(C2=O)C(Oc2ccccc2)=CC(=O)C[C@H]1C ... 1.5
COC1=C/C(=N\O)C[C@@H](C)[C@]12Oc1c(Cl)c(OC)cc(OC)c1C2=O ... 17
COC1=CC(=O)C[C@@H](C)[C@]12Oc1c(Cl)c(OC)cc(OC)c1C2=O ... 24

====

assay: Inhibition of centrosomal clustering in human SCC114 cells expressing GFPalpha-tubulin assessed as mitotic cells with multipolar spindles by fluorescence microscopy; type: functional, cell-based
endpoint-label: IC50

COC1=CC(=O)[C@@]2(Oc3c(Cl)c(OC)cc(OC)c3C2=O)[C@H](C)C1 ... > 100 µM
COc1cc(OC)c2c(c1Cl)O[C@]1(C2=O)C(=O)C(C)(C)C(=O)C[C@H]1C ... > 100 µM
COC1=C[C@@H](O)C[C@@H](C)[C@]12Oc1c(Cl)c(OC)cc(OC)c1C2=O ... > 100 µM

====

test: Inhibition of centrosomal clustering in human SCC114 cells expressing GFPalpha-tubulin assessed as mitotic cells with multipolar spindles by fluorescence microscopy; type: functional, cell-based
Listed here: items and their measured IC50.
endpoint-label: IC50

COc1cc(OC)c2c(c1Cl)O[C@@]1(C2=O)[C@H](C)C[C@H](O)C[C@@H]1OC ... > 100 µM
COc1cc(OC)c2c(c1Cl)O[C@@]1(C(=O)C(Cc3ccccc3)=C(O)C[C@H]1C)C2=O ... > 100 µM
COc1cc(OC)c2c(c1Cl)O[C@@]1(C(=O)C=C(O)C[C@H]1C)C2=O ... > 100 µM
